Data origin: patent US20250250230A1

Reported OX2R agonist activity (3 μM, %) values for a set of molecules
Molecular target: human orexin type 2 receptor (Homo sapiens, UniProt O43614)
Construct: expressed in transfected cells
Sequence (O43614 1-444): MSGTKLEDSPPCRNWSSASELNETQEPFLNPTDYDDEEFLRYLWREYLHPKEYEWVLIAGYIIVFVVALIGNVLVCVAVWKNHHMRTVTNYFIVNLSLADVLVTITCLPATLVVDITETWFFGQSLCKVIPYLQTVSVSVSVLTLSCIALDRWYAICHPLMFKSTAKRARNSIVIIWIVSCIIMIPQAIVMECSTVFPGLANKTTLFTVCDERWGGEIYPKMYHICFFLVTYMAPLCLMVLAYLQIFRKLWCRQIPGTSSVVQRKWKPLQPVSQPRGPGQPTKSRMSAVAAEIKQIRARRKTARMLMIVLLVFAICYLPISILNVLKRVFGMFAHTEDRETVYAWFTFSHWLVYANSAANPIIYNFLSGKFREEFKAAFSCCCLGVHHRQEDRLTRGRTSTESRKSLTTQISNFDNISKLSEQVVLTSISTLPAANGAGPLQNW
Test: Measurement of orexin type 2 receptor agonist activity (calcium fluorescence, Fluo-4 AM, FDSS)
Assay type: cell-based
Details: test compound 3 μM; CHO cells expressing human OX2 receptor; DMSO = 0%, orexin A (human) = 100%
Express it in %; write the number only.

Recorded OX2R agonist activity (3 μM, %), per entry:
| molecule | recordedResult |
| --- | --- |
| C[C@@H]1CN(C(=O)[C@@H]2C[C@@]2(F)c2ccc(F)cc2-c2c(F)cccc2F)[C@@H]1CNS(C)(=O)=O | 98 |
| CS(=O)(=O)NC1COCCN(C(=O)[C@@H]2C[C@H]2c2ccccc2-c2c(F)cccc2F)C1 (some centres unmarked) | 105 |
| CS(=O)(=O)NC1CCCN(C(=O)C2CC2c2ccccc2-c2cccc(F)c2F)CC1 (racemic) | 79 |

Sure, the documented OX2R agonist activity (3 μM, %) for CS(=O)(=O)NC1CCCN(C(=O)C2CC2c2ccc(C(F)F)cc2-c2c(F)cccc2F)CC1 (racemic) is 64

Sure, the documented OX2R agonist activity (3 μM, %) for CS(=O)(=O)NC1(CF)CCN(C(=O)[C@@H]2C[C@H]2c2ccccc2-c2c(F)cccc2F)C1 (some centres unmarked) is 101

Sure, the documented OX2R agonist activity (3 μM, %) for CS(=O)(=O)N[C@H]1CCCCN(C(=O)C2CC2c2ccccc2-c2c(F)cccc2F)C1 (mixture of isomers) is 108

Sure, the documented OX2R agonist activity (3 μM, %) for O=C(C1CC1c1ccccc1-c1c(F)cccc1F)N1CCC[C@H](NS(=O)(=O)CBr)C1 (mixture of isomers) is 100

Sure, the documented OX2R agonist activity (3 μM, %) for `CO[C@@H]1CN(C(=O)[C@@H]2C[C@H]2c2ccccc2-c2c(F)cccc2F)C[C@H]1NS(C)(=O)=O` is 96

Sure, the documented OX2R agonist activity (3 μM, %) for Cc1ccc(C2CC2C(=O)N2CCCC(NS(C)(=O)=O)C2)c(-c2c(F)cccc2F)c1 (racemic) is 110

Sure, the documented OX2R agonist activity (3 μM, %) for CS(=O)(=O)N[C@@H]1CN(C(=O)C2CC2c2ccccc2-c2c(F)cccc2F)CC[C@@H]1F (some centres unmarked) is 99
